Tested on: Rattus norvegicus
Experiment: Anti-inflammatory activity inRattus norvegicus albino (rat) assessed as inhibition of carrageenan-induced paw edema at 100 mg/kg administered 1 hr prior to carrageenan-challenge measured after 3 hr by plethysmometric analysis relative to control
Assay type: functional
Answer each item with its documented inhibition in vivo at 100 mg/kg.
State just the number; it will be interpreted in %.

In: Retrieve inhibition in vivo at 100 mg/kg measured for CCOC(=O)C1=C(N)Oc2c(c(=O)[nH]c3ccc(C)cc23)C1c1ccc(O)cc1 (centres undefined) and print it.
Out: 69.2

In: Read off the recorded inhibition in vivo at 100 mg/kg for CCOC(=O)C1=C(N)Oc2c(c(=O)[nH]c3ccc(C)cc23)C1c1cccc([N+](=O)[O-])c1 (centres undefined)
Out: 75.5

In: Specify reported inhibition in vivo at 100 mg/kg for the molecule shown: CCOC(=O)C1=C(N)Oc2c(c(=O)[nH]c3ccc(C)cc23)C1c1ccccc1 (centres undefined)
Out: 75.2

In: Give inhibition in vivo at 100 mg/kg for CCOC(=O)C1=C(N)Oc2c(c(=O)[nH]c3ccccc23)C1c1cccc(Cl)c1 (centres undefined)
Out: 75.9

In: Provide measured inhibition in vivo at 100 mg/kg value, entry: CCOC(=O)C1=C(N)Oc2c(c(=O)[nH]c3ccccc23)C1c1ccc(O)cc1 (centres undefined)
Out: 75.2

In: Please look at this molecule and report its inhibition in vivo at 100 mg/kg: CCOC(=O)C1=C(N)Oc2c(c(=O)[nH]c3ccccc23)C1c1cccc([N+](=O)[O-])c1 (centres undefined)
Out: 79.3

In: Provide inhibition in vivo at 100 mg/kg value for the following molecule: CCOC(=O)C1=C(N)Oc2c(c(=O)[nH]c3ccc(C)cc23)C1c1ccccc1Cl (centres undefined)
Out: 74.2

In: Please give the documented inhibition in vivo at 100 mg/kg of CCOC(=O)C1=C(N)Oc2c(c(=O)[nH]c3ccc(C)cc23)C1c1cccc(Cl)c1 (centres undefined)
Out: 75.5

In: Tell me measured inhibition in vivo at 100 mg/kg for CCOC(=O)C1=C(N)Oc2c(c(O)nc3ccccc23)C1c1ccccc1 (centres undefined) please.
Out: 75.2
